Assay metric: melting point

A selection of reference data follows.
COC(=O)C1=C(C)N(CCCc2ccccc2)C(C)=C(C(=O)OC)C1c1ccc(OC)c(OC)c1: 97 to 98 °C
CCCC1C(=O)C(NC(=O)C2CCc3ccccc3C2)=C(N)C(CCC)C1=O (centres undefined): 202 to 204 °C
O=C1Nc2c(O)cc(Cl)cc2C(C#CC2CC2)(C(F)(F)F)O1 (single isomer, unassigned; (-)): 170 to 172 °C
COc1ccc2ccccc2c1CCN: > 180 °C
CCCCCCCCCCCCCCOc1ccc(NC(=O)Nc2cccc(CCBr)c2)cc1: 164 to 169 °C
Nc1c(F)c(N2CCC(C3(N)CCC3)C2)c(F)c2c1c(=O)c(C(=O)O)cn2[C@@H]1C[C@@H]1F (some centres undefined): 133 to 139 °C
CCCCC(C)C(O)CCc1cc(O)c(O)cc1Br (centres undefined): 68 to 71 °C
CCc1cc(C)c2c(-c3cccc(Cl)c3)cc(=S)n(C)c2n1: 131 to 133 °C

Ask: I am curious: what melting point value has been reported for O=[N+]([O-])c1ccc(N2CCN(Cc3ccccc3)CC2)nc1CS(=O)(=O)c1ccccc1 ?
Reply: 175 to 176 °C

Ask: So what's the measured melting point for this one? COC(=O)CCc1c(Cc2ccccc2C(F)(F)F)sc2c1c(=O)n(C)c(=O)n2CC(C)C
Reply: 86 to 88 °C

Ask: Form field: reported melting point of O=C(NCC1CCN(C[C@H]2COc3ccc(Cl)cc3O2)CC1)c1cccc2cccnc12
Reply: 51 to 54 °C

Ask: # get_value(readout='melting point', item= O=[N+]([O-])c1cc(F)c(-c2ccc(C(F)(F)F)cc2)cc1F )
Reply: 113 to 114 °C

Ask: Would you mind telling me what melting point value was observed for O=C(CCCN1CCN2c3ccccc3NC(=O)C2C1)c1ccc(F)cc1 (centres undefined) ?
Reply: 145 to 150 °C

---

Assay metric: melting point

CCCCCS(=O)(=O)NC(=O)/C=C/c1ccc(OCCOC)cc1Oc1ncc(NC(=O)OC(C)(C)C)cc1C: 150 °C
OC(CN1CCC(O)(Cc2ccccc2)CC1)c1ccc(F)cc1 (stereo not given): 144 to 146 °C
COc1cc(N)ccc1C=NNC(=N)NN=Cc1ccc(N)cc1OC: 220 to 230 °C
C[C@]1(CN2CCN(C(=O)OCc3ccc(OC(F)(F)F)cc3)CC2)Cn2cc([N+](=O)[O-])nc2O1: 140 °C
NC(=O)NN=Cc1ccc(OCCc2coc(-c3ccccc3)n2)cc1: 221 to 226 °C
CCOCCCN(C)Cc1ccc(NC(=O)C2=Cc3cc(-c4ccc(OCC)cc4)ccc3N(C)CC2)cc1: 129 to 131 °C

Ask: What melting point value was documented for this molecule, CCCOc1nc2ccc(Br)cc2c(=O)n1CCC ?
Reply: 57 to 59 °C

Ask: State the recorded melting point for this entry: CC(c1oc2ccc(Br)cc2c(=O)c1-c1ccccc1)n1cnc2c(N)ncnc21 (stereo not given)
Reply: 230 to 231 °C

Ask: What does the record list as melting point for O=C(O)CCc1ccc(CCNS(=O)(=O)c2ccccc2)cc1 ?
Reply: 102 to 103 °C

Ask: Dear colleague, I am looking for the recorded melting point of the following molecule: COc1ccc(-c2[nH]c(=O)c3cc(OC)ccc3c2N2CCOCC2)cc1
Reply: 139 °C

---

Assay metric: melting point

Example cases with answers are listed next.
CC1COC2(c3ccccc3)c3cc(Cl)ccc3NC(=O)CN12 (stereo not given): 84 to 98 °C
CS(=O)(=O)N1CCC(C(CS(=O)(=O)c2ccc(Oc3ccc(OC(F)(F)F)cc3)cc2)N(O)C=O)CC1 (stereo not given): 178 to 179 °C

Ask: Sample COC(=O)CCc1oc(Sc2ccc(O)cc2)nc1-c1ccccc1 — what was its melting point?
Reply: 157 to 158 °C

Ask: Form field: reported melting point of CCOP(=O)(CCc1ccnc(-c2nc(=O)c3ccc(Cl)cc3s2)c1)OCC
Reply: 138 to 139 °C

Ask: Given the entry CC(C)=CCOc1ccc(C(=O)C=Cc2ccc(C(F)(F)F)cc2)c(O)c1 , report its measured melting point.
Reply: 122 to 123 °C

Ask: So what's the measured melting point for this one? O=S1(=O)N(CCCN2CC=C(c3c[nH]c4ccc(F)cc34)CC2)c2cccc3c2N1CCC3
Reply: 178 °C

---

Assay metric: melting point

Examples with their reported melting point follow.
O=C1OC(=O)C(c2ccccc2)=C1c1ccccc1: 183 to 184 °C
Cc1ccc(-c2cc(C(F)(F)F)nn2-c2ccc(S(=O)(=O)NOC(C)C(=O)O)cc2)cc1 (single isomer, unassigned; (-)): 158 to 160 °C
Cc1cc2nn(C)c(=O)n2nc1-c1cccc([N+](=O)[O-])c1: 250 to 253 °C
CN(C)C(=O)C1CC2CCC1c1[nH]c3ccccc3c12 (stereo unspecified): 231 to 232 °C

Then there is this compound:
Ask: Which measured melting point value corresponds to CC(C)C[C@H](NC(=O)[C@H](Cc1c[nH]cn1)NC(=O)[C@H](Cc1cccc2ccccc12)NC(=O)OCc1ccccc1)[C@@H](O)CCO ?
Reply: 196 to 198 °C

---

Readings of melting point for the listed compounds

O=C(Nc1cccc(OCc2cccnc2)c1)N1CCOCC1: 58 to 62 °C
Cc1ccc(-c2ccc(Cl)c(C(=O)O)n2)cc1C(=O)NCC1CCCCCC1: 177 to 178 °C
O=C(NO)c1ccc(OC(=O)C2(c3ccccc3)CCCCC2)cc1: 142 to 144 °C

Ask: Given the compound CCOc1cccc(CC(=O)O)c1OCCCc1cn(-c2ccc(C(F)(F)F)cn2)nc1C1CCCCC1 , what is its reported melting point?
Reply: 156 to 157 °C

Ask: // melting point lookup, key: CCN1C(=O)C(C(=O)Nc2cccc(C(=O)Nc3ccc(I)cc3)c2)c2cc(C(C)=O)ccc21 (centres undefined)
Reply: 205 to 210 °C

---

Assay metric: melting point (°C)
Value expressed in °C; do not type the unit.

Cc1ccccc1C1C(C#N)=C(c2ccccc2)Nc2n[nH]cc21 (stereo not given): 246

Ask: Return reported melting point; argument: Fc1ccc(OCCN2CCC(CNc3nc4ccccc4s3)CC2)cc1
Reply: 117

Ask: Requested read-out: melting point. Entry: Cc1nn2c(=O)c(CCCl)c(C)nc2s1
Reply: 118

Ask: Fill in the blank: the reported melting point of COc1ccc2sc(C34CC5CC(CC(C5)C3)C4)cc(=O)c2c1 is ____.
Reply: 140

---

Assay metric: melting point

Please review the following examples before continuing.
CCNc1c(-c2ccccc2C)nc2c3cc(OC)ccc3ccn12: 153 to 154 °C
O=C(NC(O)C(Cl)(Cl)Cl)c1cc([N+](=O)[O-])ccc1O (stereo not given): 223 to 225 °C
CCCCCCCCC(=O)Nc1cc(C)c(O)c(C)c1: 100 to 101 °C
c1ccc(CCc2nc3cccc4c3n2CCC4)cc1: 107 to 108 °C

Ask: May I ask what melting point has been recorded for CN(C1CCN(CC(C)(C)O)CC1)S(=O)(=O)c1ccc(Nc2nccc(Nc3ccc(F)c(F)c3)n2)cc1 ?
Reply: 234 to 235 °C

---

Assay metric: melting point

These solved cases illustrate the format of a correct answer.
Cc1c2c3c(ccc2nn1C)CCC3=CC#N: 200 to 203 °C
CCCCCc1ccc(-c2ncc(C#N)c(Cl)n2)cc1: 96 to 96.3 °C
Cc1nc(-c2cccc(C(=O)N[C@H]3CC[C@H](CCN4CCN(c5nccc6c5CCO6)CC4)CC3)c2)no1: 218 °C
CCc1c(OCc2ccc(Cl)cc2)cnn(C(C)(C)C)c1=O: 86 to 88 °C
COc1cc(CCc2ccc(O)c(O)c2)cc(OC)c1OC: 113 to 115 °C
Cc1ccc(CN2CCC3(CC2)CSC2=C(O3)c3ccccc3C(=O)C2=O)cc1: 156 to 158 °C

Ask: Item O=C(OCc1ccccc1)C(O)N1C(=O)C2CC=CCC21 (stereo not given) has what recorded melting point?
Reply: 92 to 93 °C

Ask: May I ask what melting point has been recorded for OCc1nnc(-c2ccc3occ(-c4cccc(OC(F)(F)F)c4)c3c2)o1 ?
Reply: 158 to 159 °C

Ask: Any idea what melting point was measured for CN(C)CCCNc1c(-c2ccccc2)c(=O)[nH]c2cc(Cl)ccc12 ?
Reply: 177 to 179 °C

Ask: What melting point value was documented for this compound, COc1ccc(N(CCC(O)CO)S(=O)(=O)c2c(F)c(F)c(F)c(F)c2F)cc1 (stereo not given) ?
Reply: 126 to 128 °C

---

Assay metric: melting point (°C)
Use °C as the unit, but write only the number.

Solved entries (count: 3):
CCCCOC(=O)[C@@H]1OC(c2ccc(C#Cc3ccc(C4O[C@@H](C(=O)OCCCC)[C@H](C(=O)OCCCC)O4)cc3)cc2)O[C@H]1C(=O)OCCCC: 54
CCOC(=O)N=c1ccc(C)cn1Cc1cccc(C(F)(F)F)c1: 121
O=S(=O)(On1nnc2ccccc21)c1cccnc1: 98

// next item, melting point requested
Ask: Report melting point for CC(C)C1(C(=O)O)CCCCC1 please.
Reply: 102
